metric: melting point

// worked examples, melting point included
compound | metric | measValue
S=c1[nH]ccn1C1Cc2ccccc2C1 | melting point | 210 to 211 °C
Cc1ccccc1C1CC(=O)c2c(C)n[nH]c2C1 (stereo unspecified) | melting point | 205 to 207 °C

Req: So what does the record say about melting point for O=C(NCc1ccccn1)c1nc(-c2ccccc2)c(-c2ccc(=O)[nH]n2)s1 ?
Resp: 221 to 222 °C

Req: So what does the record say about melting point for CCOC(=O)C(C)=NNc1ccc(Cl)c(F)c1 ?
Resp: 161 to 163 °C

Req: So what does the record say about melting point for O=C(CS(=O)Cc1ccco1)C12CC3CC(CC(C3)C1)C2 (stereo unspecified) ?
Resp: 75 to 79 °C

Req: So what does the record say about melting point for CC(=O)c1cccc(C2=C(c3ccc(S(N)(=O)=O)cc3)OC(C)(C)C2=O)c1 ?
Resp: 217 to 218 °C
